Task for the reader: assign each of the following compounds its reported ki.
Target: Enterobacter cloacae P99 β-lactamase (Enterobacter cloacae)
Construct: purchased Porton Down, Wiltshire, U.K
Format: biochemical
Conditions: values in parentheses, second order rate constant for inhibition

Quick batch: ki for everything below.
1. O=C(OP(=O)(O)Oc1ccccc1)c1ccc(-c2ccccc2)cc1
2. O=C(OP(=O)(O)Oc1ccccc1)c1cc2ccccc2s1
3. CCCCCCOP(=O)(O)OC(=O)c1ccccc1
4. O=C(/C=C/c1ccccc1)OP(=O)(O)Oc1ccccc1

≤ 3 s⁻¹ M⁻¹
≤ 5 s⁻¹ M⁻¹
0.125(≦1) s^−1 M^−1
≤ 1 s⁻¹ M⁻¹

###

Molecular target: Enterobacter cloacae P99 β-lactamase (Enterobacter cloacae, UniProt P05364)
Construct: purchased Porton Down, Wiltshire, U.K
Sequence (P05364 21-381): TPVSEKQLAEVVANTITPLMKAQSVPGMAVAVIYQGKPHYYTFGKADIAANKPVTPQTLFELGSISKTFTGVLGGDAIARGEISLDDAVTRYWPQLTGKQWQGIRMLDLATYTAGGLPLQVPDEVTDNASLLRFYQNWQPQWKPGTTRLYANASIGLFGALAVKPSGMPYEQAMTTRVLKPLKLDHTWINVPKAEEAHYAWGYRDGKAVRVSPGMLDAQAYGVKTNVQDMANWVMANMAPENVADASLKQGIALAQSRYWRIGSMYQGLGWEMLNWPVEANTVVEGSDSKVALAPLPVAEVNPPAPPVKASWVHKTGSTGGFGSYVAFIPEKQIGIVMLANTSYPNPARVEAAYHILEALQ
Assay type: biochemical
Settings: values in parentheses, second order rate constant for inhibition
Record form. Attribute: ki. Fill in for each entry.

1. COc1ccccc1C(=O)OP(=O)(O)Oc1ccccc1
3.6 ± 0.4 s⁻¹ M⁻¹

Give measured ki for every item shown.
1. O=C(OP(=O)(O)c1ccc(-c2ccccc2)cc1)c1ccccc1
2. O=C(OP(=O)(O)c1ccc([N+](=O)[O-])cc1)c1ccccc1
3. O=C(Cc1ccccc1)OP(=O)(O)Oc1ccccc1
4. O=C(OP(=O)(O)c1ccc2ccccc2c1)c1ccccc1
5. CCCCCCP(=O)(O)OC(=O)c1ccccc1

["0.117(89 ± 4) s^−1 M^−1", "0.0125(25 ± 3) s^−1 M^−1", "≤ 0.04 s⁻¹ M⁻¹", "0.0551(115 ± 5) s^−1 M^−1", "0.0226(11.1 ± 0.1) s^−1 M^−1"]

// provenance: patent US7205285B2
